B1: LINE1-full (parent)
chain: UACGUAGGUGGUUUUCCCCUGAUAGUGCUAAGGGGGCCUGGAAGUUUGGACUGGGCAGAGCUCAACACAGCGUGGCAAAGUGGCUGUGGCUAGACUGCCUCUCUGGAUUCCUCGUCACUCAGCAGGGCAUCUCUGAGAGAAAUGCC

# Variants of: B1
# Protocol: self-cleavage, relative activity (ratio to wild type); higher = more cleavage; in vitro, sequencing; the parent is a self-cleaving ribozyme
Label rule met when self-cleavage >= 0.8; otherwise rule not met.

[[record]]
sequence_variant = "U52C A67G"
label = "rule not met"

[[record]]
sequence_variant = "A31U A129G"
label = "rule met"

[[record]]
sequence_variant = "U5C U23G"
label = "rule met"

[[record]]
sequence_variant = "U52G U62C"
label = "rule not met"

[[record]]
sequence_variant = "G34C A42G"
label = "rule met"

[[record]]
sequence_variant = "G114A A124C"
label = "rule met"

[[record]]
sequence_variant = "A59C U108C"
label = "rule met"

[[record]]
sequence_variant = "U47C G72U"
label = "rule met"

[[record]]
sequence_variant = "U1C C38U"
label = "rule not met"

[[record]]
sequence_variant = "U91A U102C"
label = "rule not met"

[[record]]
sequence_variant = "U1C G70A"
label = "rule not met"

[[record]]
sequence_variant = "U15G U132C"
label = "rule met"

[[record]]
sequence_variant = "A94U A129G"
label = "rule not met"

[[record]]
sequence_variant = "A65G C103U"
label = "rule not met"

[[record]]
sequence_variant = "C63A A129U"
label = "rule not met"

[[record]]
sequence_variant = "U45C A138C"
label = "rule met"

[[record]]
sequence_variant = "A2U A30G"
label = "rule met"

[[record]]
sequence_variant = "G21A U45C"
label = "rule met"

[[record]]
sequence_variant = "A57U G114A"
label = "rule not met"

[[record]]
sequence_variant = "C103A G135A"
label = "rule met"

[[record]]
sequence_variant = "U20C G40C"
label = "rule met"

[[record]]
sequence_variant = "U29A U109C"
label = "rule met"

